Each entry below lists one item and its recorded solubility kinetic value.
- recordedConditions: buffer; pH 7.4; 200.0 µM
valueType: solubility kinetic (µg/mL)

> print(dat)
                                    molecule  readingqualifier  testvalue
 1             Cc1ccc(C(=O)Nc2ccncc2)c(Cl)c1                 >         37
 2  CC1CCCN(C(=O)c2ccc3c(c2)OCO3)C1 (configuration not stated)                 >       37.1
 3  O=C(OCC(=O)c1cccs1)c1ccc([N+](=O)[O-])o1                 =       16.4
 4          CC(C)c1cc(CN2CCOCC2)cc(C(C)C)c1O                 >       41.6
 5                   Cn1ccnc1SCC(=O)NC1CCCC1                 =       28.8
 6     CCCCNC(=O)C1CCN(S(=O)(=O)N2CCOCC2)CC1                 >         50
 7  O=C(Nc1cc(S(=O)(=O)N2CCOCC2)ccc1N1CCCCC1)c1ccccc1Br                 =        6.1
 8       CCn1c(CNC(=O)C2CCCCC2)cc2cc(C)ccc21                 <        0.3
 9            Cc1ccc(C#N)c(SCc2cccc(Br)c2)n1                 <        0.3
10  O=C(NCc1ccco1)C(=O)NCC(c1ccco1)N1CCOCC1 (configuration not stated)                 =       47.2
11                Fc1ccccc1-c1nc2ccccc2[nH]1                 >       31.8
12  COc1cccc(CN2CCN(C3CCOCC3)CC2CCO)c1 (configuration not stated)                 =       46.3

====

- recordedConditions: buffer; pH 7.4; 200.0 µM
Cut-off 20 µg/mL on solubility kinetic, inclusive. At or above means Yes; below means No.

> print(dat)
                                    compound  labelclass
 1  Cc1cc(C)c(NC(=O)C(C)N2CCCCCC2)c(C)c1.Cl (stereo not given)         Yes
 2  CCN(Cc1ccccc1)C(=O)c1ccc(Cl)cc1[N+](=O)[O-]         Yes
 3        Cl.Nc1nc(N)c2[nH]c(-c3ccccc3)nc2n1         Yes
 4             CC1(C)COCN1C(=O)c1ccc(C#N)cc1         Yes
 5  O=C(Cc1ccccc1)OCC(=O)c1cccc([N+](=O)[O-])c1         Yes
 6                 Cc1cnc(SCc2cnc(C)nc2N)nc1         Yes
 7      Cn1c(-c2ccc(F)cc2)cnc1NCc1ccc(F)cc1F         Yes
 8  CC(C)(C)OC(=O)N1CCCN(C(=O)Nc2ccc(C(F)(F)F)cc2)CC1         Yes
 9  O=C(NC1CCC(O)CC1)c1cc(Cl)c2c(c1)OCCO2 (stereo not given)         Yes
10         CCOc1cccc(C(=O)Nc2ccc3ccccc3c2)c1          No
11              Cc1cc(=O)n(CC(=O)O)c2ccccc12         Yes
12            O=C(Nc1ccccc1)OCCOc1ccc(Br)cc1          No
13  Cc1cc(C)c(C(N)=O)c(SCC(=O)c2cc(C)n(-c3cc(C)on3)c2C)n1          No
14             O=c1cc(O)c2ccccc2n1Cc1ccccc1F         Yes
15       COC(=O)c1sccc1NC(=O)Nc1ccc(OC)cc1OC          No
16  CC(=O)Nc1ccc(/C=N/N2C(C)CCCC2C)cc1 (stereo not given)         Yes
17  COc1ccccc1P(=O)(c1ccccc1)c1ccccc1NC(C)=O (stereo not given)         Yes
18               Cc1ccc(C(C)C)c(Oc2cnccn2)c1          No
19  COc1ccc2oc(C(=O)OCC(=O)N3CCCCC3C)c(C)c2c1 (stereo not given)         Yes
20  CC1CCCC(NC(=S)NC(=O)c2ccco2)C1C (stereo not given)          No
21  CCC(C)(C)NC(=O)/C=C/c1ccccc1[N+](=O)[O-]         Yes
22             CCn1ccc(C(=O)NCCCN2CCCC2=O)n1         Yes
23  O=[N+]([O-])c1cccc(NC(=S)N2CCN(c3ccccn3)CC2)c1          No
24  Cl.Oc1cc2c(cc1O)C(c1ccccc1)CNCC2 (stereo not given)         Yes
25          COc1ccc(C)cc1NC(=O)NCCCCc1ccccc1          No
26      O=C(O)c1ccccc1C(=O)NCc1ccc2c(c1)OCO2         Yes
27                 Cc1cc(Oc2ccc(N)cn2)ccc1Cl         Yes
28   O=S(=O)(c1cc(F)ccc1F)N1CCN(c2ccccn2)CC1          No
29              CC(=O)CC1=NC(C)(C)Cc2ccccc21          No
30  CCN(CC)C(=O)CSc1nc(-c2ccccc2)cc(=O)[nH]1         Yes
31  Cc1cccc(C(=O)Nc2ccc(C(=O)c3ccccc3)cc2)c1          No
32      O=C(c1ccc(Cl)cc1)N(c1ccccn1)C1CCCCC1         Yes
33                 O=S(=O)(Nc1ccccn1)c1cccs1         Yes
34    O=c1c2ccccc2nc(/C=C/c2ccc(Cl)cc2)n1CCO          No
35  CCOC(=O)CC1COc2ccccc2N1C(=O)c1ccc(F)cc1 (stereo not given)         Yes
36   Cc1cccc(CCNC(=O)c2oc3c(C)c(C)ccc3c2C)n1          No
37  COc1ccccc1N(CC(=O)Nc1cc(S(=O)(=O)N(C)C)ccc1C)S(=O)(=O)c1cccs1          No
38  CCOc1ccc(C(=O)CC(C(=O)O)N2CCCCC2)cc1 (stereo not given)         Yes
39              [NH-]S(=O)(=O)c1ccccc1.[Na+]         Yes
40  CCOCCn1c(=O)c2c(nc3n2CCCN3Cc2ccccc2)n(C)c1=O         Yes
41  COC(=O)COc1cccc(NC(=O)c2cc(OC)cc(OC)c2)c1         Yes
42              CCOC(=O)CCSc1cc(C)c2ccccc2n1          No
43                         NCCCn1cnc2ccccc21         Yes
44  CCOc1cc(C(=O)NC2CC(C)(C)NC(C)(C)C2)cc(OCC)c1OCC         Yes
45  COc1ccc(OC)c(S(=O)(=O)N2CCN3CCCC3C2)c1 (stereo not given)         Yes
46           Cn1ccnc1SCC(=O)c1ccc(OC(F)F)cc1         Yes
47               O=C(Cc1cccs1)NCCc1ccc(F)cc1         Yes
48                         OCCNC(=S)c1ccccc1         Yes
49  CCN(c1ccccc1)S(=O)(=O)c1cccc(C(=O)Nc2ccc(C)cn2)c1          No
